- Test details: Pharmacokinetic evaluation in mice
- Format: in vivo
- Particulars: mouse, plasma, po, intragastric administration group 5 mg/kg, read-out: Half-life T1/2 (converted)
Measure: half-life (h)

[a] Cc1cnc(-c2cccc(C(=O)N(C)C)c2)c(F)c1-n1c(C)cc(OCc2ncc(F)cc2F)c(Cl)c1=O (single isomer, unassigned) [Compound 32-P1]
[b] Cc1cnc(-c2cccc(C(=O)O)c2)c(F)c1-n1c(C)cc(OCc2ncc(F)cc2F)c(Cl)c1=O [Compound 29-P1]
Inquiry: Could you tell me which of a and b has the lower half-life reading? Return value: the label identifying the chosen record.
Reply text: a
(a: 1.54 h, b: 3.37 h)

* * *

- Target or system: p38 MAPK/MK2 (Homo sapiens, UniProt Q16539)
- Construct: Abcam (MK2) 04-152; 79910
- Sequence (Q16539 whole entry): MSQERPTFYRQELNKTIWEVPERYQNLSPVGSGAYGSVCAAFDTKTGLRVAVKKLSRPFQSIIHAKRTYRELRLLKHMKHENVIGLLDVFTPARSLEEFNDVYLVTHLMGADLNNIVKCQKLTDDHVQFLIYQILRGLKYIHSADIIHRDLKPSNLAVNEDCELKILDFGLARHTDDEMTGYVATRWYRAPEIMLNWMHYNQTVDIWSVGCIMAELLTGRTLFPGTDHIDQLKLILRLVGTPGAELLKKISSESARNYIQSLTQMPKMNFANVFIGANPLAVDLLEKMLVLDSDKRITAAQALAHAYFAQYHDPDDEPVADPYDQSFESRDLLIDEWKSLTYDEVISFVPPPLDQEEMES
- Sequence (P49137 whole entry partner): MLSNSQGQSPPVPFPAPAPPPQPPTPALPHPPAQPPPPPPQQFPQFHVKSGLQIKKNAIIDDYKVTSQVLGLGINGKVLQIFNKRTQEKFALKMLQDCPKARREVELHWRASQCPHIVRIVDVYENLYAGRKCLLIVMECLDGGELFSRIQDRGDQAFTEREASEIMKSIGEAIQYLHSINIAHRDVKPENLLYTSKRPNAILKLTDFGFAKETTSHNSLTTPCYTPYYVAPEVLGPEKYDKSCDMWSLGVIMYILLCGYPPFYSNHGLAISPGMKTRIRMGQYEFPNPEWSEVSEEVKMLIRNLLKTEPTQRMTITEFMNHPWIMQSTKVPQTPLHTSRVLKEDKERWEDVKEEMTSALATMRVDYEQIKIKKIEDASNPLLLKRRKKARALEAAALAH
- Test details: In vitro activity assay of p38 MAPK/MK2 (Z-LYTE kinase assay kit)
- Particulars: active p38α, inactive MK2, Ser/Thr 4; 1-hour reaction at 20° C.
Measure: IC50 (nM)

[a] Cc1cnc(-c2ccc(F)c([C@@](C)(O)CO)c2F)cc1-n1c(C)cc(OCc2ncc(F)cc2F)c(Cl)c1=O (single isomer, unassigned) [Compound 65-P4]
[b] Cc1cnc(-c2cccc(S(C)(=O)=O)c2)cc1-n1c(C)cc(OCc2ncc(F)cc2F)c(Cl)c1=O
[c] Cc1cnc(-c2cc(F)cc([C@](C)(O)CO)c2F)cc1-n1c(C)cc(OCc2ncc(F)cc2F)c(Cl)c1=O
Inquiry: Rank the 3 molecules shown above by IC50, smallest number first. // respond by listing labels in the order requested
Reply text: a, c, b

* * *

- Target or system: p38 MAPK/MK2 (Homo sapiens)
- Construct: Abcam (MK2) 04-152; 79910
- Test details: In vitro activity assay of p38 MAPK/MK2 (Z-LYTE kinase assay kit)
- Particulars: active p38α, inactive MK2, Ser/Thr 4; 1-hour reaction at 20° C.
Measure: IC50 (nM)

Compound: CNC(=O)c1cccc(-c2cc(-n3c(C)cc(OCc4ncc(F)cc4F)c(Cl)c3=O)c(C)cn2)c1
Target or system: p38 MAPK/MK2 (Homo sapiens)
Measured: 62.4

[I] Cc1cnc(-c2ccc3c(c2)C(C)(C)NC3=O)c(F)c1-n1c(C)cc(OCc2ncc(F)cc2F)c(Cl)c1=O
[II] Cc1cnc(-c2cccc(C(C)(C)O)c2O)cc1-n1c(C)cc(OCc2ncc(F)cc2F)c(Cl)c1=O
Inquiry: Could you tell me which of I and II has the lower IC50 reading? Return value: the label identifying the chosen record.
Reply text: II

[I] Cc1cnc(-c2ccc3c(c2F)C(C)(C)NC3=O)cc1-n1c(C)cc(OCc2ncc(F)cc2F)c(Cl)c1=O
[II] Cc1cnc(-c2cccc(C(N)=O)c2F)cc1-n1c(C)cc(OCc2ncc(F)cc2F)c(Cl)c1=O [Compound 21-P2]
Inquiry: Of I and II , whose reported IC50 is the larger number? Return value: the label identifying the chosen record.
Reply text: I
(I: 39.9 nM, II: 0.51 nM)

[I] Cc1cnc(-c2cc([C@@](C)(O)CO)ccc2F)c(F)c1-n1c(C)cc(OCc2ncc(F)cc2F)c(Cl)c1=O [Compound 106-P1]
[II] Cc1cnc(-c2cccc(C(=O)NOCCO)c2)cc1-n1c(C)cc(OCc2ncc(F)cc2F)c(Cl)c1=O
Inquiry: Of I and II , whose reported IC50 is the larger number? Return value: the label identifying the chosen record.
Reply text: II
(II: 87.5 nM, I: 7.73 nM)
